Tested on: Pseudomonas aeruginosa
Assay: Antibacterial activity against Pseudomonas aeruginosa PAO397 [PAO1 d(mexAB-oprM) d(mexCD-oprJ) d(mexEF-oprN) d(mexJKL) d(mexXY) d(opmH)] (CO-ADD:GN_211); MIC in CAMBH media using NBS plates, by OD(600)
Assay type: functional
Conditions: Concentration 300 ug.mL-1, ASSAY_TEST Inhibition of Bacterial Growth, detection method Absorption (OD600), MEDIA CAMHB, plate type 384well, CORNING #3640, time 18 hr
The whole screen tested about 18,000 compounds, of which fewer than 10 showed an effect of 50% or more. Not all results are given here.
measurement_kind: Inhibition (%)

COCC(=O)Nc1cccc(CN2CCCC2)c1	-2.77
O=C(CCc1ccc2[nH]ccc2c1)N1CCOCC1	-29.4
c1ccc(C2=NCCN2)nc1	8.57
O=C(NC1CC1)c1n[nH]c2ccccc12	-5.33
O=C(CN1CCNC(=O)C1)NCCOc1ccccc1	25.17
CC(C)c1ccn(CC(=O)NC2CC2)n1	1.75
Cn1cccc1CNCCNC(=O)c1ccn[nH]1	-19.28
COC(=O)CN1CCCC1=O	5.23
O=C1CN(Cc2ncc[nH]2)CCN1C1CCCC1	2.49
Cc1csc(N2CCCN(C(=O)c3cnsn3)CC2)n1	-3.72
COC(=O)CCCC(=O)N1CCC2(CCCC2)C1	14.7
CS(=O)(=O)N1CCCC(C(=O)Nc2cccnc2O)C1 (centres undefined)	14.72
CC(CS(C)(=O)=O)NC(=O)C(C)(C)C (centres undefined)	-7.14
CC1COCCN1Cc1cn2ccccc2n1 (centres undefined)	15.25

* * *

// Inhibition lookup, one value per entry
System: Pseudomonas aeruginosa
Experiment: Antibacterial activity against Pseudomonas aeruginosa PAO397 [PAO1 d(mexAB-oprM) d(mexCD-oprJ) d(mexEF-oprN) d(mexJKL) d(mexXY) d(opmH)] (CO-ADD:GN_211); MIC in CAMBH media using NBS plates, by OD(600)
Assay type: functional
Settings: Concentration 300 ug.mL-1, ASSAY_TEST Inhibition of Bacterial Growth, detection method Absorption (OD600), MEDIA CAMHB, plate type 384well, CORNING #3640, time 18 hr
The whole screen tested about 18,000 compounds, of which fewer than 10 showed an effect of 50% or more. Only a sample is shown.
measurement_kind: Inhibition (%)

Cc1ccnc(NCCS(=O)(=O)NCC2CCC2)c1	-18.59
CN(C(=O)COCC1CC1)c1nc2ccccc2n1C	4.52
CCCNC(=O)C1CCN(c2ncccc2C#N)CC1	-18.27
CN1Cc2cccn2CC1CNC(=O)NC1CCCC1 (stereo not given)	-13.25
Cc1cc(NC(=O)NCC2CCN(CCO)CC2)no1	13.32
COCCN(C)C(=O)Nc1cccc(C)n1	-9.37
COc1ccc(Cl)cc1NC(=O)N[C@@H]1CNCC[C@H]1O	-35.77
COc1cc(CCCN)cc(OC)c1O	4.59
CCCOc1cccc(NCCCS(C)(=O)=O)c1	1.09
CN1CCC(CN(C)S(=O)(=O)c2ccccc2)CC1	-25.1
CC1(C)C(=O)NCCN1S(=O)(=O)c1ccccc1	-8.7
NC(=O)C1CCN(C(=O)C2CCCO2)CC1 (stereo not given)	-13.49
CC(O)CCS(C)(=O)=O (stereo not given)	4.88
Cc1ccccc1CN1CCCN(CCC(N)=O)CC1	-4.93
NCc1cc2c([nH]c1=O)CCCC2	4.51

* * *

// Inhibition lookup, one value per entry
Test system: Pseudomonas aeruginosa
Test: Antibacterial activity against Pseudomonas aeruginosa PAO397 [PAO1 d(mexAB-oprM) d(mexCD-oprJ) d(mexEF-oprN) d(mexJKL) d(mexXY) d(opmH)] (CO-ADD:GN_211); MIC in CAMBH media using NBS plates, by OD(600)
Assay type: functional
Details: Concentration 300 ug.mL-1, ASSAY_TEST Inhibition of Bacterial Growth, detection method Absorption (OD600), MEDIA CAMHB, plate type 384well, CORNING #3640, time 18 hr
Screen size: about 18,000 compounds; fewer than 10 showed an effect of 50% or more. Only a sample is shown.
measurement_kind: Inhibition (%)

CC1CN(c2cc(CN)ccn2)CCO1 (stereo not given)	10.77
CS(=O)(=O)NC(c1ccc(F)cc1)c1cccnc1 (stereo not given)	-27.51
CN1CC[C@H]2CN(C(=O)CCCc3cn[nH]c3)C[C@H]21	-2.24
CN(c1ccc(O)cc1)S(=O)(=O)c1ccco1	-8.79
Cn1nc(C(F)(F)F)c(Cl)c1C(=O)N[C@@H]1CCNC1	31.11
c1nsnc1-c1nc(C2CCCO2)no1 (stereo not given)	-21.13
CCn1ccc(C(=O)NCc2ccco2)n1	2.87
CC(O)CN(C)c1ncc(Br)cn1 (stereo not given)	-40.03
CCc1cccc(S(=O)(=O)N2CC[C@H](N)C2)c1	-15.97
CC(C#N)CNC(=O)c1c(O)cc(F)cc1F (stereo not given)	13.91
O=C1CC(N2CCN(Cc3ccccc3)CC2)C(=O)N1 (stereo not given)	-12.59
CC(C)(C)SCC(=O)Nc1ccc(CS(N)(=O)=O)cc1	-2.55
Cc1cc(C)cc(OCC(=O)N2CCNCC2)c1	-0.07
Cc1ccc(CC(=O)N2CCC[C@H]2CO)cc1O	9.81
CC(C)OCC(O)CN1CCc2ccc(O)cc2C1 (stereo not given)	-14.27
